# System: S. pneumoniae D39V;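 note: first quartile when negative (synergy) and third quartile when positive (antagonism)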
# assay_procedure: Bliss interaction score (quartile over a dose matrix) (fitness difference); higher = more antagonism (negative = synergy)
Measured Bliss interaction score determines class: I (below -0.03), II (-0.03 to below 0.08), III (0.08 or more)

Sample answers from the record:
C[n+]1ccc(-c2cc[n+](C)cc2)cc1 [Paraquat] + CN[C@H](CC(C)C)C(=O)N[C@H]1C(=O)N[C@@H](CC(N)=O)C(=O)N[C@H]2C(=O)N[C@H]3C(=O)N[C@H](C(=O)N[C@H](C(=O)O)c4cc(O)cc(O)c4-c4cc3ccc4O)[C@H](O)c3ccc(c(Cl)c3)Oc3cc2cc(c3O[C@@H]2O[C@H](CO)[C@@H](O)[C@H](O)[C@H]2O[C@H]2C[C@](C)(N)[C@H](O)[C@H](C)O2)Oc2ccc(cc2Cl)[C@H]1O [Vancomycin]
III
C[n+]1ccc(-c2cc[n+](C)cc2)cc1 [Paraquat] + CN[C@@H]1[C@H](O[C@H]2[C@H](O[C@H]3[C@H](O)[C@@H](O)[C@H](N=C(N)N)[C@@H](O)[C@@H]3N=C(N)N)O[C@@H](C)[C@]2(O)C=O)O[C@@H](CO)[C@H](O)[C@H]1O [Streptomycin]
I
CC[C@H]1OC(=O)[C@H](C)[C@@H](O[C@H]2C[C@@](C)(OC)[C@@H](O)[C@H](C)O2)[C@H](C)[C@@H](O[C@@H]2O[C@H](C)C[C@H](N(C)C)[C@H]2O)[C@](C)(O)C[C@@H](C)CN(C)[C@H](C)[C@@H](O)[C@]1(C)O [Azithromycin] + O=C1CN(/N=C/c2ccc([N+](=O)[O-])o2)C(=O)N1 [Nitrofurantoin]
I

Problem: Sort into band: CC1=C(C(=O)O)N2C(=O)[C@@H](NC(=O)[C@H](N)c3ccccc3)[C@H]2SC1 [Cephalexin] + CC[C@H]1OC(=O)[C@H](C)C(=O)[C@H](C)[C@@H](O[C@@H]2O[C@H](C)C[C@H](N(C)C)[C@H]2O)[C@](C)(OC)C[C@@H](C)C(=O)[C@H](C)[C@H]2N(CCCCn3cnc(-c4cccnc4)c3)C(=O)O[C@]12C [Telithromycin]
Result: II

Problem: Record: O=C(O)[C@H]1/C(=C/CO)O[C@@H]2CC(=O)N21 [Clavulanic] + Clc1ccc(COC(Cn2ccnc2)c2ccc(Cl)cc2Cl)c(Cl)c1 [Miconazole]
Result: II

Problem: Record: Cc1onc(-c2ccccc2)c1C(=O)N[C@@H]1C(=O)N2[C@@H]1SC(C)(C)[C@@H]2C(=O)O [Oxacillin] + CN[C@@H]1[C@H](O[C@H]2[C@H](O[C@H]3[C@H](O)[C@@H](O)[C@H](N=C(N)N)[C@@H](O)[C@@H]3N=C(N)N)O[C@@H](C)[C@]2(O)C=O)O[C@@H](CO)[C@H](O)[C@H]1O [Streptomycin]
Result: III

Problem: Record: O=C(O)[C@H]1/C(=C/CO)O[C@@H]2CC(=O)N21 [Clavulanic] + O=C(O[C@@H]1Cc2c(O)cc(O)cc2O[C@@H]1c1cc(O)c(O)c(O)c1)c1cc(O)c(O)c(O)c1 [EGCG]
Result: II
